Target: Mitogen-activated protein kinase 3 (Homo sapiens, UniProt P27361)
Sequence (P27361 whole entry): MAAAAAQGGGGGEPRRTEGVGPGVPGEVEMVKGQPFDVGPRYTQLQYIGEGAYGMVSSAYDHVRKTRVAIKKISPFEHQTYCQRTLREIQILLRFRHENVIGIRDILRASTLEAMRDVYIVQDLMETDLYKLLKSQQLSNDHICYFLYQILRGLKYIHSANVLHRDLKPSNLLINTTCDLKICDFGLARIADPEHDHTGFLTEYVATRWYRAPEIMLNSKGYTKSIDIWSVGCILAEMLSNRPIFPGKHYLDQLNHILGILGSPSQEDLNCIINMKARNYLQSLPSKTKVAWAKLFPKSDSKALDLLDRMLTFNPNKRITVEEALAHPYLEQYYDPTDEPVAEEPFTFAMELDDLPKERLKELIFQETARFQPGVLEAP
Experiment: DRUGMATRIX: Protein Serine/Threonine Kinase, ERK1 enzyme inhibition (substrate: Myelin Basic Protein)
Set-up: species or system Escherichia coli
Settings: Not Active = under 50% inhibition at 10 µM
measurement-kind: IC50

>>> result("CCN[C@@H]1C[C@H](N)[C@@H](O[C@H]2OC(CN)=CC[C@H]2N)[C@H](O)[C@H]1O[C@H]1OC[C@](C)(O)[C@H](NC)[C@H]1O [NETILMICIN]")
"Not Active"
>>> result("O=NN(CCCl)C(=O)NCCCl [CARMUSTINE]")
"Not Active"
>>> result("CCOC(=O)[C@H](CCc1ccccc1)N[C@H]1CCc2ccccc2N(CC(=O)O)C1=O [BENAZEPRIL]")
"Not Active"
>>> result("C[C@]12CC[C@@H]3c4ccc(OC(=O)c5ccccc5)cc4CC[C@H]3[C@@H]1CC[C@@H]2O [ESTRADIOL BENZOATE]")
"Not Active"
>>> result("CCCC(CCC)C(=O)O [VALPROIC ACID]")
"Not Active"

Each of the following entries comes with a recorded value; kindly state IC50 for each.
1. CN1CCC(=C2c3ccccc3C=Cc3ccccc32)CC1 [CYPROHEPTADINE]
2. C[C@@H]1C[C@@H]([C@H](O)CC2CC(=O)NC(=O)C2)C(=O)[C@@H](C)C1 [CYCLOHEXIMIDE]
3. C[C@@H](N)[C@H]1CC[C@H](C(=O)Nc2ccncc2)CC1 [Y-27632]
4. CCOC(=O)C(C)(C)Oc1ccc(Cl)cc1 [CLOFIBRATE]
5. N=C(Nc1ccccc1)Nc1ccccc1
6. Cc1cc(C)nc(NS(=O)(=O)c2ccc(N)cc2)n1 [SULFAMETHAZINE]

Completion:
1. Not Active
2. Not Active
3. Not Active
4. Not Active
5. Not Active
6. Not Active

State recorded IC50 for all listed compounds.
1. OC(CCN1CCCCC1)(c1ccccc1)C1CCCCC1 (centres undefined) [TRIHEXYPHENIDYL]
2. COc1ccccc1C(=O)N1CCC(Cc2ccccc2)CC1
3. C[C@H]1C[C@H]2[C@@H]3CCC4=CC(=O)C=C[C@]4(C)[C@@]3(Cl)[C@@H](O)C[C@]2(C)[C@@]1(O)C(=O)CO [BECLOMETHASONE]
4. CC[C@@H](CO)NCCN[C@@H](CC)CO [ETHAMBUTOL]
5. S=C=Nc1cccc2ccccc12 [1-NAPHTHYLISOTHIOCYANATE]
6. O=c1ccc2ccccc2o1 [COUMARIN]

Completion:
Not Active
Not Active
Not Active
Not Active
Not Active
Not Active

// input: 2 compounds below; output: IC50 for each
1. O=C1CCC(N2C(=O)c3ccccc3C2=O)C(=O)N1 (centres undefined) [THALIDOMIDE]
2. C[C@]1(Cn2ccnn2)[C@H](C(=O)O)N2C(=O)C[C@H]2S1(=O)=O [TAZOBACTAM]

Completion:
1: Not Active; 2: Not Active

----------
Target: D(3) dopamine receptor (Homo sapiens, UniProt P35462)
Sequence (P35462 whole entry): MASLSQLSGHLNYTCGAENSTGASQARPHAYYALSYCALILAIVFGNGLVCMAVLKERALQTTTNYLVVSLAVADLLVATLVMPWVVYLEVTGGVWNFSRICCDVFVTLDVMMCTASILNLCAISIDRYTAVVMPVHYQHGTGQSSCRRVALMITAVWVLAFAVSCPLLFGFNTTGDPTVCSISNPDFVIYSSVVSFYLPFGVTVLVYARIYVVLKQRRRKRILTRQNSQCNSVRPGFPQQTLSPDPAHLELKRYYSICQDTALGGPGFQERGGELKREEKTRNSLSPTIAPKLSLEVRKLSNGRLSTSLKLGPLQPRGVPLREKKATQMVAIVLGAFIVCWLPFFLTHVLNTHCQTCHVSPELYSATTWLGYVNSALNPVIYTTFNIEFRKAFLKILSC
Assay: DRUGMATRIX: Dopamine D3 radioligand binding (ligand: [3H] Spiperone)
Assay type: cell membranes, CHO, Membrane
Conditions: cho
measurement-kind: IC50

Consider the reported IC50 for these compounds:
>>> result("O=C(N[C@H](CO)[C@H](O)c1ccc([N+](=O)[O-])cc1)C(Cl)Cl")
"Not Active"
>>> result("CNC(=C[N+](=O)[O-])NCCSCc1ccc(CN(C)C)o1")
"Not Active"
>>> result("CC(=O)N[C@@H]1[C@H](Oc2c3cc4cc2Oc2ccc(cc2Cl)[C@@H](O[C@@H]2O[C@@H](CO)[C@@H](O)[C@H](O)[C@@H]2NC(C)=O)[C@@H]2NC(=O)[C@H](NC(=O)[C@@H]4NC(=O)[C@H]4NC(=O)[C@@H](Cc5ccc(c(Cl)c5)O3)NC(=O)[C@H](N)c3ccc(O)c(c3)Oc3cc(O)cc4c3)c3ccc(O)c(c3)-c3c(O[C@H]4O[C@H](CO)[C@@H](O)[C@@H](O)[C@@H]4O)cc(O)cc3[C@@H](C(=O)O)NC2=O)O[C@@H](CO)[C@@H](O)[C@@H]1O")
"Not Active"
>>> result("CC(C)NCC(O)COc1cccc2ccccc12 (stereo unspecified)")
"Not Active"
>>> result("CC(C)[C@H]1CC[C@H](C(=O)N[C@H](Cc2ccccc2)C(=O)O)CC1 [NATEGLINIDE]")
"Not Active"

Prompt: Sample C[C@]1(Cn2ccnn2)[C@H](C(=O)O)N2C(=O)C[C@H]2S1(=O)=O — what was its IC50?
Completion: Not Active

----------
Field: Ki. Provide a value for each of the compounds that follow.
Biological target: Alpha-1B adrenergic receptor (Rattus norvegicus)
Sequence (P15823 whole entry): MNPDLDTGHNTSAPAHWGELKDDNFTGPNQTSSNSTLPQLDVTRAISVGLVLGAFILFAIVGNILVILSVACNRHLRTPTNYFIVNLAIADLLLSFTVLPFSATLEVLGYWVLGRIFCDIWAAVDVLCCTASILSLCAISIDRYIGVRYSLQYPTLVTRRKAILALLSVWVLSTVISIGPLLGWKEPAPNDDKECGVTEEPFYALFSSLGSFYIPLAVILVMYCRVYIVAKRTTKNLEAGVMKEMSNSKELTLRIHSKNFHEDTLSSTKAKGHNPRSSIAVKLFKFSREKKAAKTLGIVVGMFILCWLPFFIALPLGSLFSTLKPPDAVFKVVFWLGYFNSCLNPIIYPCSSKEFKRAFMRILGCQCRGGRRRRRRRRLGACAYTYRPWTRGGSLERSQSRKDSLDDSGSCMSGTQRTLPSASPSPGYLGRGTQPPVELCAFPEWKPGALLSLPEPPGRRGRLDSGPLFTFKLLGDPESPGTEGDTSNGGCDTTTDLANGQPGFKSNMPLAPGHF
Assay: DRUGMATRIX: Alpha-1B adrenergic receptor radioligand binding (ligand: prazosin)
Format: cell membranes, Wistar, Liver, Membrane
Settings: Not Active = under 50% inhibition at 10 µM; read-out: Ki
One number for each entry, in µM.

Some compounds with known Ki results, for comparison:
>>> quantitative_result("O=C(c1ccc(OCCN2CCCCC2)cc1)c1c(-c2ccc(O)cc2)sc2cc(O)ccc12")
1.49
>>> quantitative_result("CC(C)(C)c1ccc(C(O)CCCN2CCC(C(O)(c3ccccc3)c3ccccc3)CC2)cc1 (stereo not drawn)")
1.85

Lab note: next compound to report on.
Prompt: Which Ki is reported with Alpha-1B adrenergic receptor (Rattus norvegicus) for this entry: CC(=O)N1CCN(c2ccc(OCC3COC(Cn4ccnc4)(c4ccc(Cl)cc4Cl)O3)cc2)CC1 (stereo not drawn) ?
Completion: 12.7

----------
Target: Kappa-type opioid receptor (Homo sapiens, UniProt P41145)
Sequence (P41145 whole entry): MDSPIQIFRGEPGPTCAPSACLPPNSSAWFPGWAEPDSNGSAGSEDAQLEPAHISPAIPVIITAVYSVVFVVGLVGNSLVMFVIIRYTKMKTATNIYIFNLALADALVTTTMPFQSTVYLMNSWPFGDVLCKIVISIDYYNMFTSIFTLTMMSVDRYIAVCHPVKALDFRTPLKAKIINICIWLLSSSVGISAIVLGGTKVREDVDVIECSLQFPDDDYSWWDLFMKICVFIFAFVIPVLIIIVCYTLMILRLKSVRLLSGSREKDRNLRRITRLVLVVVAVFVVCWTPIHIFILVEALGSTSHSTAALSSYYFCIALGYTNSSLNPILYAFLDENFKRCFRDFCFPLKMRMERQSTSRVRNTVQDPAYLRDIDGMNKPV
Assay: DRUGMATRIX: Opiate kappa (OP2, KOP) radioligand binding (ligand: [3H] Diprenorphine)
Type: cell membranes, HEK293, Membrane
Settings: Not Active = under 50% inhibition at 10 µM; read-out: Ki
measurement-kind: pKi
Answers are plain numbers, as −log10 of the molar value.

Prompt: Could you tell me which pKi is on file for CN(C)c1ccc(C(=C2C=CC(=[N+](C)C)C=C2)c2ccc(N(C)C)cc2)cc1.[Cl-] ?
Completion: 6.21

----------
Biological target: Sigma non-opioid intracellular receptor 1 (Homo sapiens)
Sequence (Q99720 whole entry): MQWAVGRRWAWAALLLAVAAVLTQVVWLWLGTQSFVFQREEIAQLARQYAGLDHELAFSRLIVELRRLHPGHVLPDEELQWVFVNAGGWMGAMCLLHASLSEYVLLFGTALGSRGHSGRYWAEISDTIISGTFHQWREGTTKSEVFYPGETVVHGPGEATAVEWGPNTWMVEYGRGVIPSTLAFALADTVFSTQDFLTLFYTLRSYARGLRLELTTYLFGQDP
Experiment: DRUGMATRIX: Sigma1 radioligand binding (ligand: [3H] Haloperidol)
Format: cell membranes, Jurkat, Membrane
Settings: jurkat; Not Active = under 50% inhibition at 10 µM
measurement-kind: IC50

// known answers, use as guide
>>> result("CCOC(=O)C(C)(C)Oc1ccc(Cl)cc1 [CLOFIBRATE]")
"Not Active"
>>> result("C[C@@H](N)[C@H]1CC[C@H](C(=O)Nc2ccncc2)CC1")
"Not Active"
>>> result("NC(=O)c1cnccn1 [PYRAZINAMIDE]")
"Not Active"
>>> result("Cc1cc(C)nc(NS(=O)(=O)c2ccc(N)cc2)n1")
"Not Active"
>>> result("C[C@@]12C(=O)OC(=O)[C@]1(C)[C@H]1CC[C@@H]2O1")
"Not Active"

# return IC50 for each item in the list
1. CC1(C)O[C@@H]2C[C@H]3[C@@H]4C[C@H](F)C5=CC(=O)C=C[C@]5(C)[C@H]4[C@@H](O)C[C@]3(C)[C@]2(C(=O)CO)O1 [FLUNISOLIDE]
2. CCN1CC(CCN2CCOCC2)C(c2ccccc2)(c2ccccc2)C1=O (centres undefined)
3. CCN[C@@H]1C[C@H](N)[C@@H](O[C@H]2OC(CN)=CC[C@H]2N)[C@H](O)[C@H]1O[C@H]1OC[C@](C)(O)[C@H](NC)[C@H]1O
4. C[C@]1(Cn2ccnn2)[C@H](C(=O)O)N2C(=O)C[C@H]2S1(=O)=O
5. COc1cccc2c1C(=O)c1c(O)c3c(c(O)c1C2=O)C[C@@](O)(C(=O)CO)C[C@@H]3O[C@H]1C[C@H](N)[C@@H](O)[C@H](C)O1 [EPIRUBICIN]

Completion:
Not Active
Not Active
Not Active
Not Active
Not Active

Hey, can you go through the list below and give me IC50 for every item?
1. CC(=O)Nc1c(I)c(NC(C)=O)c(I)c(C(=O)O)c1I
2. CN(C)c1ccc(C(=C2C=CC(=[N+](C)C)C=C2)c2ccc(N(C)C)cc2)cc1.[Cl-]
3. Cc1ccc(S(=O)(=O)NC(=O)NN2CC3CCCC3C2)cc1 (centres undefined) [GLICLAZIDE]

Completion:
["Not Active", "Not Active", "Not Active"]

----------
Test: DRUGMATRIX: beta-Lactamase enzyme inhibition (substrate: Nitrocefin)
Parameters: species or system Bacillus cereus
Details: Not Active = under 50% inhibition at 10 µM
measurement-kind: Ki

Example results:
>>> result("CO[C@H]1/C=C/O[C@@]2(C)Oc3c(C)c(O)c4c(c3C2=O)C2=NC3(CCN(CC(C)C)CC3)NC2=C(NC(=O)/C(C)=C\\C=C\\[C@H](C)[C@H](O)[C@@H](C)[C@@H](O)[C@@H](C)[C@H](OC(C)=O)[C@@H]1C)C4=O")
"Not Active"
>>> result("CC[C@@H](CO)NCCN[C@@H](CC)CO")
"Not Active"
>>> result("CC(C)Cc1ccc(C(C)C(=O)O)cc1 (stereo not drawn)")
"Not Active"
>>> result("C[C@@H](N)[C@H]1CC[C@H](C(=O)Nc2ccncc2)CC1")
"Not Active"
>>> result("S=C=Nc1cccc2ccccc12 [1-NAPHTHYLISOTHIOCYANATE]")
"Not Active"

For each entry beneath this line, provide reported Ki.
1. CCCN(CCC)C(=O)C(CCC(=O)O)NC(=O)c1ccccc1 (stereo not drawn) [PROGLUMIDE]
2. CC(=O)Nc1cccc(O)c1
3. Cc1ccc(S(=O)(=O)NC(=O)NN2CC3CCCC3C2)cc1 (stereo not drawn) [GLICLAZIDE]
4. CCN(CC)CCOC(=O)c1ccc(N)cc1
5. Cc1ccccc1C(=O)N1CCC(Cc2ccccc2)CC1
6. Cn1c(=O)c2c(ncn2CC2OCCO2)n(C)c1=O

Completion:
1. Not Active
2. Not Active
3. Not Active
4. Not Active
5. Not Active
6. Not Active

Go through the items and report each one's Ki.
1. CCCC(=O)Nc1ccc(OCC(O)CNC(C)C)c(C(C)=O)c1 (stereo not drawn)
2. CN1C(C(=O)Nc2ccccn2)=C(O)c2sccc2S1(=O)=O
3. C[C@@H]1C[C@@H]([C@H](O)CC2CC(=O)NC(=O)C2)C(=O)[C@@H](C)C1 [CYCLOHEXIMIDE]
4. CC[C@]1(O)C[C@@H]2CN(CCc3c([nH]c4ccccc34)[C@@](C(=O)OC)(c3cc4c(cc3OC)N(C)[C@H]3[C@@](O)(C(=O)OC)[C@H](OC(C)=O)[C@]5(CC)C=CCN6CC[C@]43[C@@H]65)C2)C1
5. COc1ccccc1C(=O)N1CCC(Cc2ccccc2)CC1
6. O=C1CC2(CCCC2)CC(=O)N1CCCCN1CCN(c2ncccn2)CC1
7. N=C(Nc1ccccc1)Nc1ccccc1

Completion:
Not Active
Not Active
Not Active
Not Active
Not Active
Not Active
Not Active
